- System: ovalbumin sensitised guinea pigs
- experimental.details: Inhibition of eosinophil infiltration and hyper-reactivity in the guinea pig
- Format: in vivo
- experimental.parameters: Cavia porcellus, Eosinophil, inhaled or nasal, 24 h, intratracheal dose 0.2 μg/kg body weight, 0.5 hours before and 6 hours after antigen challenge, read-out: % Inhibition Eosinophil Accumulation
assay.metric: inhibition in vivo at 0.0002 mg/kg (%)
# number only, unit % dropped from output

Answered cases to consult:
>>> df
                                   molecule  reading
0  Cc1ccccc1OCC(=O)N[C@@H](CC(C)C)C(=O)N[C@@H](Cc1ccc(OC(=O)N2CCC(C(N)=O)CC2)cc1)C(=O)O [Example 27]       58
1  CC(C)C[C@H](NC(=O)c1cccc2c1oc1ccccc12)C(=O)N[C@@H](Cc1ccc(OC(=O)N2CCC(C(N)=O)CC2)cc1)C(=O)O [Example 28]        3
2  CC(C)C[C@H](NC(=O)COc1ccccc1C(C)(C)C)C(=O)N[C@@H](Cc1ccc(OC(=O)N2CCN(C(=O)c3ccccc3)CC2)cc1)C(=O)O [Example 20]       67

Ask | Query inhibition in vivo at 0.0002 mg/kg for CC(=O)N1CCN(C(=O)Oc2ccc(C[C@H](NC(=O)[C@H](CC(C)C)NC(=O)COc3ccccc3C)C(=O)O)cc2)CC1 [Example 17]
Reply | 68

Ask | For CC(C)C[C@H](NC(=O)COc1ccccc1C(C)(C)C)C(=O)N[C@@H](Cc1ccc(OC(=O)N2CCOCC2)cc1)C(=O)O [Example 24] , write its inhibition in vivo at 0.0002 mg/kg.
Reply | 26

Ask | Let me know recorded inhibition in vivo at 0.0002 mg/kg for Cc1ccccc1OCC(=O)N[C@@H](CC(C)C)C(=O)N[C@@H](Cc1ccc(OC(=O)N2CCN(C(=O)c3ccccc3)CC2)cc1)C(=O)O [Example 21] , thanks.
Reply | 49

Ask | Look up inhibition in vivo at 0.0002 mg/kg of CC(=O)N1CCN(C(=O)Oc2ccc(C[C@H](NC(=O)[C@H](CC(C)C)NC(=O)COc3ccccc3C(C)(C)C)C(=O)O)cc2)CC1 [Example 16] and report it.
Reply | 62
